Biological target: Potassium channel subfamily K member 9 (Homo sapiens) (UniProt Q9NPC2)
Sequence (Q9NPC2 whole entry, looked up): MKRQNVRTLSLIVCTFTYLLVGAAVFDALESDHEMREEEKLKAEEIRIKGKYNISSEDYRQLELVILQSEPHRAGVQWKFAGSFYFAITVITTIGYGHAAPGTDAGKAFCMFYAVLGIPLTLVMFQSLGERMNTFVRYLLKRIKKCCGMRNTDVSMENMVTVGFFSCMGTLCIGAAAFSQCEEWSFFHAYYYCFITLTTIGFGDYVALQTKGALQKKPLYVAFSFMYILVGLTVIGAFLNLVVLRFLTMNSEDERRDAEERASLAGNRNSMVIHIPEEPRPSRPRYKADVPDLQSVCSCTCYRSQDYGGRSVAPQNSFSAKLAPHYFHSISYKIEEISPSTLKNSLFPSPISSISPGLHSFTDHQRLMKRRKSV
Test: blockers of human TASK-3 (KCNK9) channel – HEK293 cells, thallium flux, primary screen (AID 488922)
Details: HEK293 KCNK9, FluxOR thallium flux fluorescence, at 10 µM
Screen size: about 310,000 compounds; about 3,800 (1.2%) were called active.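 How the source made its calls: active means ratio B-score over 3 SD below the library mean, with starting fluorescence within 5 SD of its mean; inactive means the rest, inconclusive results apart.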 For the sample, actives were picked, then their nearest neighbours and some compounds at random.
Outcomes: active, inactive

[
  {
    "COMPOUND": "Brc1ccc(-c2noc(-c3ccccc3)n2)o1",
    "CLASS_NAME": "inactive"
  },
  {
    "COMPOUND": "COc1cccc(CN2CCNC(=O)C2CC(=O)N(C)CCc2ccccn2)c1 (stereo unspecified)",
    "CLASS_NAME": "inactive"
  },
  {
    "COMPOUND": "CN(Cc1ccccn1)Cc1nc(-c2ccc(Cl)cc2)no1",
    "CLASS_NAME": "inactive"
  },
  {
    "COMPOUND": "Cn1nc(-c2ccccc2)c(-c2nc(-c3ccc(Cl)cc3)no2)c1Cl",
    "CLASS_NAME": "active"
  },
  {
    "COMPOUND": "CCOc1cc(C)c(Cl)cc1S(=O)(=O)n1nnc2ccccc21",
    "CLASS_NAME": "inactive"
  },
  {
    "COMPOUND": "CN=C1SC(CC(=O)Nc2ccc(C(=O)O)cc2)C(=O)N1C (stereo unspecified)",
    "CLASS_NAME": "inactive"
  },
  {
    "COMPOUND": "O=C(N/C(=C\\c1ccc([N+](=O)[O-])cc1)C(=O)N1CCCCC1)c1ccco1",
    "CLASS_NAME": "inactive"
  },
  {
    "COMPOUND": "Cc1ccc(S(=O)(=O)N(CC(=O)Nc2cccnc2)c2ccc(Br)cc2)cc1",
    "CLASS_NAME": "inactive"
  },
  {
    "COMPOUND": "Cc1ccc(NC(=O)CN2CCCCC2)c2c1CC(C)(C)O2",
    "CLASS_NAME": "inactive"
  },
  {
    "COMPOUND": "COC(=O)Cc1ccc(N(Cc2ccccc2F)S(=O)(=O)c2ccc(Br)cc2)cc1",
    "CLASS_NAME": "active"
  },
  {
    "COMPOUND": "CCOc1ccc(C(C)C)cc1S(=O)(=O)n1nc(C)cc1C",
    "CLASS_NAME": "active"
  }
]
